tested on: NCI-H522 lung; assay: NCI tumour cell line growth inhibition, 48 h
value-type: TGI (µM)
Field: numeric (µM). Do not append units.

Examples with answers:
compound | TGI / µM
CC1(C)CC(Nc2ccc(Nc3ccccc3)cc2)CC(C)(C)N1 | 26.6
S=C(Nc1ccccn1)Nc1ccccc1Cl | 37.9
COc1cc(OC)c(C(=O)/C=C/c2cccc(OC(C)=O)c2)cc1CC=C(C)C | 22.2

Record NC1=Nc2cc(OCCCN3Cc4ccccc4C3)c(OCC3CC3)cc2C12CCCC2 / NCI-H522 lung, TGI recorded as 4.87

Record C#CCn1c(=O)c(Cl)cn(/C(=C/C(=O)OCC)C(=O)OCC)c1=O / NCI-H522 lung, TGI recorded as 12.6

Record CC(=O)N1c2ccccc2C(C)C1c1[nH]c2ccccc2c1C (configuration not stated) / NCI-H522 lung, TGI recorded as 49.2

Record CCCCCCCCCCCCCCCCCCOCC(COP(=O)([O-])OCC[N+](C)(C)C)OC (configuration not stated) / NCI-H522 lung, TGI recorded as 32.7

Record O=C(COc1cccc(/C=C2\CSc3ccccc3C2=O)c1)c1ccc(Cl)cc1 / NCI-H522 lung, TGI recorded as 3.67

Record COc1ccccc1NC(=O)O/N=C(/Cl)C(C)C / NCI-H522 lung, TGI recorded as 3.37

Record CNCCCNCCCN1C(=O)c2ccc3c4c(ccc(c24)C1=O)C(=O)N(CCCNCc1ccccc1OC)C3=O / NCI-H522 lung, TGI recorded as 2.83
